Assay: NCI Yeast Anticancer Drug Screen. Data for the rad50 strain (AID 155);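 note: 0% = growth of vehicle-only cultures of the same strain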
Details: S. cerevisiae rad50 strain growth inhibition; at 50.0 µM; stronger effect = higher value
The panel holds about 79,000 compounds, 15% with a hit somewhere; the sample as a whole holds those more often.
MEASURED ATTRIBUTE: growth inhibition (%)
Answers are plain numbers, in %.

Guide cases for growth inhibition, answers given:
O=C(CC(=O)C(=O)CC(=O)OCc1ccccc1)OCc1ccccc1    15
SCCNCc1ccco1    -31.4
CSc1ccc(NC(=O)Oc2cc(C)c(Cl)cc2C(C)C)cc1    39.6
Cc1cccc(C(C#N)c2ccc(N)cc2)c1 (stereo not given)    -35.2
C/C(=N\NC(=O)C(N)=O)c1c(O)cc(C)oc1=O    -29.1
COc1ccc(C)cc1NC(=S)NC(=O)c1cccc([N+](=O)[O-])c1    2.25
CC1(C)COC(c2ccc(CC(Cc3ccc(C4(C(C)(C)C)OCC(C)(C)CO4)cc3)C(=O)O)cc2)(C(C)(C)C)OC1    -7.25
O=C(CCl)Oc1cccc2cccnc12    -8.75
Nc1cccnc1NCC(O)c1ccccc1 (stereo not given)    1.9
COc1ccc(CCC(C)(O)c2ccccc2)cc1 (stereo not given)    11.7

Go through the items and report each one's growth inhibition.
1. COc1cc(/C=C/C(=O)c2sc(NNC(C)=O)nc2C)ccc1O
2. CC(=O)NC(N)=O

Solution:
1. 15.6
2. 3.9

Go through the items and report each one's growth inhibition.
1. Cc1sc2c(c1C)/C(=N\O)c1cccn1-2
2. N#CCCOCC(OCCC#N)C(OCCC#N)C(OCCC#N)C(COCCC#N)OCCC#N (stereo not given)
3. CCCCCC/C=C1\CCC(CN(C)C)C1=O (stereo not given)
4. COc1ccc2nc3ccccc3c(NCCCN(C)C)c2c1[N+](=O)[O-]
5. COC(C(=O)C(O)C(C)O)C1CC2C=C3C=C(OC4CC(OC5CC(O)C(OC)C(C)O5)C(OC(C)=O)C(C)O4)C(C)C(=O)C3=C(O)C2=C(O)C1OC1CC(OC2CC(OC3CC(C)(O)C(OC(=O)C(C)C)C(C)O3)C(O)C(C)O2)C(O)C(C)O1 (stereo not given)

Solution:
[-0.05, -9.85, 79.4, -8.1, 51]

Go through the items and report each one's growth inhibition.
1. O=C1c2ccccc2N2Oc3ccccc3C12c1ccccc1 (stereo not given)
2. COc1ccc(/C(N)=N/OCc2ccc(C#N)cc2)cc1
3. COc1ccc(C2(C)OCCCC2([NH-])C[NH-])cc1.[Cl][Pt+2][Cl] (stereo not given)

Solution:
[-3.45, -13.5, 10.9]

###

Assay: NCI Yeast Anticancer Drug Screen. Data for the cln2 rad14 strain (AID 165);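 note: 0% = growth equal to vehicle treated cultures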
Details: S. cerevisiae cln2 rad14 strain, at 50.0 µM, stronger effect = higher value
Compounds without any hit were thinned out: in the full panel of roughly 79,000, 15% have a hit.
Task for the reader: assign each of the following molecules its reported growth inhibition.
One number for each entry, in %.

Guide cases for growth inhibition, answers given:
COC(=O)c1ccc(OC(=O)Nc2cccc(C(C)=O)c2)cc1    -9.2
C=C1C(=O)C23CC1C[C@H](OC(C)=O)C2C1(C)C(OC(C)=O)C[C@H](O)C(C)(C)[C@H]1C(O)[C@@H]3OC(C)=O (some centres undefined)    -2.95
O=C(NCCCl)NCC1CCCCO1 (centres undefined)    -76.3
CSc1nc2c(c(=O)[nH]1)CC(=O)N2    -33.6
CC[n+]1nc2ccccc2c(=Nc2ccccc2[N+](=O)[O-])[n-]1    29.4

Go through the items and report each one's growth inhibition.
1. O=C(NI1OC(=O)c2ccccc21)c1ccc(Cl)cc1
2. C=CCN(CC=C)P(=O)(N(CC=C)CC=C)N(CC=C)CC=C

Solution:
-17.5
0.15

Go through the items and report each one's growth inhibition.
1. NC(=O)NC(CCl)NC(N)=O
2. O=C1c2ccccc2C(=O)C2C3c4ccccc4C(c4ccccc43)C12 (centres undefined)
3. O=C1Nc2ccccc2N=NN1CCCl

Solution:
[13.1, -9.2, 1.85]

Go through the items and report each one's growth inhibition.
1. CN1CCc2ccccc2C1Cc1cc(OCc2ccccc2)ccc1N (centres undefined)
2. O=C1OC2C(Cl)CC(Cl)CC2C=C1c1cccc([N+](=O)[O-])c1 (centres undefined)
3. O=S(=O)(O)c1cc(S(=O)(=O)O)c2c(N=Nc3cccc4ccccc34)c(O)ccc2c1
4. Cn1c(=O)c2c(ncn2CCNC(c2ccccc2)c2cccc(Cl)c2)n(C)c1=O (centres undefined)
5. CN(C)/N=C/c1cn(C)c(=O)n(C)c1=O
6. CCCNC(=S)/N=C/c1c(O)c2ccccc2[nH]c1=O

Solution:
1. 30.6
2. -21.9
3. -18.1
4. -8.3
5. -5.55
6. 12.3

Go through the items and report each one's growth inhibition.
1. O=c1oc2c(ccc3ccccc32)c(O)c1-c1cccc2ccccc12
2. CCc1nc2c([nH]1)C(=O)c1ccccc1C2=O

Solution:
[99, 9.25]

growth inhibition recorded for this molecule, `CC(=O)OCCSc1ccc(Cl)cc1` , is -33.2
